# test.target: human V1a receptor (Homo sapiens (Human), UniProt P37288)
# Sequence (P37288 whole entry): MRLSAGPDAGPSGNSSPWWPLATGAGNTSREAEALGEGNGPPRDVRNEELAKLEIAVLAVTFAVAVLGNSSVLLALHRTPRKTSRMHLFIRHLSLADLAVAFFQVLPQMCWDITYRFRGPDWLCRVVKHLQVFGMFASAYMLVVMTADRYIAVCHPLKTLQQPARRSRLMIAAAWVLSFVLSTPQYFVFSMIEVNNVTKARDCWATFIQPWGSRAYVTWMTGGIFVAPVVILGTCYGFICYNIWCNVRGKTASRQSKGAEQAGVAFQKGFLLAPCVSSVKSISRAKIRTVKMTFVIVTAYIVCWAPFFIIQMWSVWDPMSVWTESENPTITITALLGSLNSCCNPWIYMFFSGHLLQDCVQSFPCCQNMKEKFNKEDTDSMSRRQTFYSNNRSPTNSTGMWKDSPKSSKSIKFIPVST
# procedure.summary: Cellular in vitro assay for determining the vasopressin receptor activity (aequorin luminescence, CHO cells, antagonism of [Arg8]-vasopressin)
# condition.set: cell line transfected with the human V1a receptor; agonist [Arg8]-vasopressin; read-out: IC50 hV1a
measured.metric: pIC50
Scale for pIC50: -log10 of concentration given in mol/L; no unit attached.

// solved cases for pIC50 follow
molecule="CC(C)(C)OC(=O)NC(CNC(=O)Cn1nc(-c2ccc(Cl)s2)n(Cc2ccccc2F)c1=O)c1ccccc1C(F)(F)F (racemic) [Example 67]" observed_result=7.74
molecule="NC(=O)OCC(CNC(=O)Cn1nc(-c2ccc(Cl)cc2)n(C[C@H](O)C(F)(F)F)c1=O)c1ccccc1Cl (single isomer, unassigned) [Example 6]" observed_result=7.92

Q. // returns reported pIC50 for input NC(=O)NC(CNC(=O)Cn1nc(-c2ccc(Cl)cc2)n(C[C@H](O)C(F)(F)F)c1=O)c1ccccc1Cl (single isomer, unassigned) [Example 33]
A. 7.77

Q. What do you have for O=CNC(CNC(=O)Cn1nc(-c2ccc(Cl)cc2)n(C[C@H](O)C(F)(F)F)c1=O)c1cccc(C(F)(F)F)c1 (stereo partly drawn) [Example 36] ?
A. 7.72

Q. What do you have for NC(=O)OC(CNC(=O)Cn1nc(-c2ccc(Cl)cc2)n(CCC(F)(F)F)c1=O)c1ccccc1Cl (racemic) [Example 59] ?
A. 7.85

Q. What do you have for NC(=O)OC(CNC(=O)Cn1nc(-c2ccc(Cl)cc2)n(C[C@H](O)C(F)(F)F)c1=O)c1cccc(Cl)c1Cl (single isomer, unassigned) [Example 52] ?
A. 8.15
